# study_system: VEGF (used to stimulate HUVEC cells) (UniProt P15692-4 27-191, limits assumed)
# Sequence (P15692 other isoform, or with tags, fused parts or gaps limits assumed): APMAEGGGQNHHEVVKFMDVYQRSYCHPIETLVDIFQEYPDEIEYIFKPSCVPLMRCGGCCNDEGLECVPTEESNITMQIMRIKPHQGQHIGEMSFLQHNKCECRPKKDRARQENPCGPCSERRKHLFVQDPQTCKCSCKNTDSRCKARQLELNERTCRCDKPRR
# assay_remarks: cell-based or functional assay
recorded_metric: IC50, VEGF HUVEC proliferation assay (pM)
Write the answer as a number in pM, unit excluded.

**Q:** // lookup IC50, VEGF HUVEC proliferation assay for VEGFBII022 (VHH, not shown: small tags and cut ends, Bivalent (heterodimeric) anti-VEGF VHH; also called VEGFBII23B04-9GS-5B05) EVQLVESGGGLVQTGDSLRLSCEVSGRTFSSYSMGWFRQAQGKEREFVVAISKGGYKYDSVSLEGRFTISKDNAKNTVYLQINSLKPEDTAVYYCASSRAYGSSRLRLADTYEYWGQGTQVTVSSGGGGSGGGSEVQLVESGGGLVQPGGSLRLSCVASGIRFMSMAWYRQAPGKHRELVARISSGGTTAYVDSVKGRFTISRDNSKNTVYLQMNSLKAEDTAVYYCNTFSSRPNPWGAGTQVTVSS
**A:** 340
